Hey, just so you know, these numbers are from patent US6855843B2.

Where a name gives a salt, the structure may show the parent alone.
melting point overview
propertyName: melting point (°C)

>>> endpointvalue("CCOC(=O)[C@H](Cc1ccc(-c2c(OC)cc(CN(C)C)cc2OC)cc1)NC(=O)c1c(Cl)cccc1Cl (as salt: hydrochloride)")
146.5
>>> endpointvalue("CS(=O)(=O)Nc1ccc(C(=O)N[C@@H](Cc2ccc(-c3ccccc3C(F)(F)F)cc2)C(=O)O)c(Cl)c1")
114
>>> endpointvalue("COc1cccc(OC)c1-c1ccc(C[C@H](NC(=O)c2c(Cl)ccc(-c3c(C)noc3C)c2Cl)C(=O)O)cc1")
144.8

====

pIC50 overview
# target: α4β7 (adhesion of RPMI cells to CS-1) (Homo sapiens, UniProt P13612+P26010)
# Construct: endogenous in cells
# Sequence (P13612 34-1032): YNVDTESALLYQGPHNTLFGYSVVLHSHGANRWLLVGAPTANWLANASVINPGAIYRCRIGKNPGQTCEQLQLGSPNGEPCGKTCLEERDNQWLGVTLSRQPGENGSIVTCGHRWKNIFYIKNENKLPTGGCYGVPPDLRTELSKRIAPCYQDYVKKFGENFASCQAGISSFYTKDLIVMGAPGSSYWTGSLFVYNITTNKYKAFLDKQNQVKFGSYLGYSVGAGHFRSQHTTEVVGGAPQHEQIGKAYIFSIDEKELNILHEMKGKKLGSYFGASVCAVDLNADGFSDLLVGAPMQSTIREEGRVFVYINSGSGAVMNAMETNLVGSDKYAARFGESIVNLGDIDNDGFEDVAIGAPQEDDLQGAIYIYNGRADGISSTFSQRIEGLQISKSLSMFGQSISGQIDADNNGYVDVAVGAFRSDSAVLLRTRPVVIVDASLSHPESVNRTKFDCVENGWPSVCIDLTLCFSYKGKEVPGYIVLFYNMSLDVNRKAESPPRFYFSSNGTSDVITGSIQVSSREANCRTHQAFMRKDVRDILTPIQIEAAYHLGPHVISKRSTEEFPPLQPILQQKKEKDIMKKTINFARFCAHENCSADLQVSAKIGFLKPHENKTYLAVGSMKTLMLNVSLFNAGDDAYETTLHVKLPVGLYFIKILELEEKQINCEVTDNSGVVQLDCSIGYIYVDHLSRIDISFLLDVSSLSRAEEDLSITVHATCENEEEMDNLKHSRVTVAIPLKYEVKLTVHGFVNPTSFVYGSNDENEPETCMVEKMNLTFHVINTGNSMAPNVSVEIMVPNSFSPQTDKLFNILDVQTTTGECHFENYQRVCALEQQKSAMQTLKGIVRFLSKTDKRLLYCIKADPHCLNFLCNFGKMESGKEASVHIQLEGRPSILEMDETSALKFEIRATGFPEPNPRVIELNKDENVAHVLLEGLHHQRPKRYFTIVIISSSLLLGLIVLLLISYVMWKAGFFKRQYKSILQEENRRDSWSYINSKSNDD
# Sequence (P26010 20-798): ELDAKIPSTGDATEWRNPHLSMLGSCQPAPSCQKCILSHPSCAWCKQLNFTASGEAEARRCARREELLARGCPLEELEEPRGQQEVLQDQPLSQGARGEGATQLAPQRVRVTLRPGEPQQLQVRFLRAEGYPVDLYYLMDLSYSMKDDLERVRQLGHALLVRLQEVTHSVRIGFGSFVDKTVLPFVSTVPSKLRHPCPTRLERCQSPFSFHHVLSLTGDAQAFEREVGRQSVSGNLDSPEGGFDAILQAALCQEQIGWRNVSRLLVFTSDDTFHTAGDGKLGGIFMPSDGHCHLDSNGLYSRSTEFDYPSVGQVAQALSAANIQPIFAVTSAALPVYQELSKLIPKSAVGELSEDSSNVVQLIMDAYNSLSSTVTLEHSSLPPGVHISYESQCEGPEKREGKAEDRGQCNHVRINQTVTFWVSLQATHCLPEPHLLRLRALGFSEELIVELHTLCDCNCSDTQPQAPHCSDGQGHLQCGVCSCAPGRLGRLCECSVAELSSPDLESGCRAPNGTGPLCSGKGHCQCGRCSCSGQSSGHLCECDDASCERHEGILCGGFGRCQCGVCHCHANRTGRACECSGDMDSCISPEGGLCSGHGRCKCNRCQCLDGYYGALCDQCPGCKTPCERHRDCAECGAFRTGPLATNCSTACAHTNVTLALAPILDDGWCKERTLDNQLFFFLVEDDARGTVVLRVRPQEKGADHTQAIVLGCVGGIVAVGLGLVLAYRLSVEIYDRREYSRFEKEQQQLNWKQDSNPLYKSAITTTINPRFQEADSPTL
# protocol: RPMI-CS-1 cell adhesion assay
# conditionDetails: adhesion of RPMI B-cell line (expresses α4β7) to CS-1 peptide coated microwells; read-out: RPMI-CS-1 IC50 value range
pIC50: −log10 of the molar value.
propertyName: pIC50

>>> endpointvalue("COc1ccccc1-c1ccc(C[C@H](NC(=O)c2ccc([N+](=O)[O-])cc2Cl)C(=O)O)cc1")
"> 6.52"
>>> endpointvalue("COc1ccccc1-c1ccc(C[C@H](NC(=O)c2ccc(CC(C)C)cc2)C(=O)O)cc1")
"< 5.30"
>>> endpointvalue("O=C(N[C@@H](Cc1ccc(-c2c(Cl)cccc2Cl)cc1)C(=O)O)c1c(Cl)cccc1Cl")
"6.00 to 6.52"
>>> endpointvalue("COCCOc1ccc2c(c1-c1ccc(C[C@H](NC(=O)c3c(Cl)cccc3Cl)C(=O)O)cc1)OCO2")
"6.00 to 6.52"
>>> endpointvalue("CC(C)(C)OC(=O)n1cccc1-c1ccc(C[C@H](NC(=O)c2c(Cl)cccc2Cl)C(=O)O)cc1")
"5.30 to 6.00"
>>> endpointvalue("COc1cccc(OCCO)c1-c1ccc(C[C@H](NC(=O)c2c(Cl)cccc2Cl)C(=O)O)cc1")
"> 6.52"
>>> endpointvalue("COc1ccccc1-c1ccc(C[C@H](NC(=O)c2ccc(C)nc2Cl)C(=O)O)cc1")
"5.30 to 6.00"
>>> endpointvalue("COc1cc(CN2CCC3(CC2)OCCO3)cc(OC)c1-c1ccc(C[C@H](NC(=O)c2c(Cl)cccc2Cl)C(=O)O)cc1")
"> 6.52"
>>> endpointvalue("COc1ccccc1-c1ccc(C[C@H](NC(=O)c2ccc(NS(=O)(=O)c3ccc(C(F)(F)F)cc3)cc2Cl)C(=O)O)cc1")
"> 6.52"
>>> endpointvalue("N#Cc1ccccc1-c1ccc(C[C@H](NC(=O)c2c(Cl)cccc2Cl)C(=O)O)cc1")
"> 6.52"
>>> endpointvalue("C=CCN(C(=O)OC(C)(C)C)c1cc(OC)c(-c2ccc(C[C@H](NC(=O)c3c(Cl)cccc3Cl)C(=O)O)cc2)c(OC)c1")
"> 6.52"
>>> endpointvalue("CS(=O)(=O)NC(=O)c1ccccc1-c1ccc(C[C@H](NC(=O)c2c(Cl)cccc2Cl)C(=O)O)cc1")
"< 5.30"
>>> endpointvalue("CCOc1cccc(-c2ccc(C[C@H](NC(=O)c3c(Cl)cccc3Cl)C(=O)O)cc2)c1")
"< 5.30"
>>> endpointvalue("O=C(N[C@@H](Cc1ccc(-c2c(F)cccc2F)cc1)C(=O)O)c1c(Cl)cccc1Cl")
"> 6.52"
>>> endpointvalue("CCCCOc1ccccc1-c1ccc(C[C@H](NC(=O)c2c(Cl)cccc2Cl)C(=O)O)cc1")
"5.30 to 6.00"
